# System: Uromyces appendiculatus
# assay-name: In vivo preventive test on Uromyces appendiculatus (bean rust)
# settings: 500 ppm of active ingredient; bean plants sprayed 24 hours before contamination; grading 11 days after contamination vs control plants
assay-readout: Efficacy (%)
Write the answer as a number in %, unit excluded.

smiles-str	value-unit	numeric-result
Cc1nn(C)c(F)c1C(=O)N(Cc1ccccc1[Si](C)(C)c1ccccc1)C1CC1	%	93
Cn1nc(C(F)F)c(C(=O)N(Cc2ccccc2[Si](C)(C)c2ccc(Oc3ccccc3)cc2)C2CC2)c1F	%	96

The record that follows has no Efficacy shown yet.
Input Cn1nc(C(F)F)c(C(=O)N(Cc2ccccc2[Si](C)(C)c2ccccc2)C2CC2)c1F , output reported Efficacy.
100

###

# assay-name: log P by HPLC on reversed-phase column (C 18), EEC Directive 79/831 Annex V.A8
# Type: physicochemical
# settings: Table 1, compounds of formula (I); HPLC C 18, 40° C., 0.1% aqueous formic acid and acetonitrile, gradient 10% to 90% acetonitrile
Measured logP accompanies every entry in the list below.
Enter the number alone.

These recorded examples may help you get a feel for the data.
smiles-str	logP
CCc1nn(C)c(F)c1C(=O)N(Cc1ccccc1[Si](C)(C)c1ccccc1)C1CC1	4.81
C[Si](C)(c1ccccc1CN(C(=O)c1ccsc1I)C1CC1)c1cccc2ccccc12	5.84
Cn1nc(C(F)F)c(C(=O)N(Cc2ccccc2[Si](C)(C)c2cccc3ccccc23)C2CC2)c1F	5.19

Input Cc1cc(C(=O)N(Cc2ccccc2[Si](C)(C)c2cccc3ccccc23)C2CC2)c(C)o1 , output reported logP.
5.87

Input Cc1cc(C(=O)N(Cc2ccccc2[Si](C)(C)c2ccc(Oc3ccccc3)cc2)C2CC2)c(C)o1 , output reported logP.
6.33

Input C[Si](C)(c1ccc(Cl)cc1)c1ccccc1CN(C(=O)c1ccsc1I)C1CC1 , output reported logP.
5.81

###

# assay-name: log P by HPLC on reversed-phase column (C 18), EEC Directive 79/831 Annex V.A8
# Assay type: physicochemical
# settings: Table 1, compounds of formula (I); HPLC C 18, 40° C., 0.1% aqueous formic acid and acetonitrile, gradient 10% to 90% acetonitrile
assay-readout: logP

Input Cn1cc(C(=O)N(Cc2ccccc2[Si](C)(C)c2ccc(-c3ccccc3)cc2)C2CC2)c(C(F)F)c1 , output reported logP.
5.68

###

Measured Efficacy accompanies every entry in the list below.
# Test system: Puccinia recondita
# assay-name: In vivo test on Puccinia recondita (brown rust)
# settings: 500 ppm of active ingredient; wheat plants sprayed 24 hours before contamination; grading 12 days after contamination vs control plants
Could you kindly put the unit after your number?

smiles-str	target-or-test-system	Efficacy
Cn1nc(C(F)F)c(C(=S)N(Cc2ccccc2[Si](C)(C)c2ccc(Cl)cc2)C2CC2)c1F	Puccinia recondita	88%
Cn1nc(C(F)F)c(C(=O)N(Cc2ccccc2[Si](C)(C)c2ccc(Cl)cc2)C2CC2)c1F	Puccinia recondita	94%
Cn1cc(C(=O)N(Cc2ccccc2[Si](C)(C)c2ccc(Cl)cc2)C2CC2)c(C(F)F)n1	Puccinia recondita	78%

The record that follows has no Efficacy shown yet.
Input Cc1nn(C)c(F)c1C(=O)N(Cc1ccccc1[Si](C)(C)c1ccccc1)C1CC1 , output reported Efficacy.
92%

###

# assay-name: log P by HPLC on reversed-phase column (C 18), EEC Directive 79/831 Annex V.A8
# Type: physicochemical
# settings: Table 1, compounds of formula (I); HPLC C 18, 40° C., 0.1% aqueous formic acid and acetonitrile, gradient 10% to 90% acetonitrile
assay-readout: chromatographic logP

Input Cc1nn(C)c(F)c1C(=O)N(Cc1ccccc1[Si](C)(C)c1ccccc1)C1CC1 , output reported chromatographic logP.
4.24

###

# assay-name: log P by HPLC on reversed-phase column (C 18), EEC Directive 79/831 Annex V.A8
# Assay type: physicochemical
# settings: Table 1, compounds of formula (I); HPLC C 18, 40° C., 0.1% aqueous formic acid and acetonitrile, gradient 10% to 90% acetonitrile
assay-readout: logP
Enter the number alone.

smiles-str	numeric-result
Cn1cc(C(=O)N(Cc2ccccc2[Si](C)(C)c2ccc(-c3ccccc3)cc2)C2CC2)c(C(F)F)n1	5.36
Cn1nc(C(F)F)c(C(=S)N(Cc2ccccc2[Si](C)(C)c2ccc(Cl)cc2)C2CC2)c1F	3.09
Cn1cc(C(=O)N(Cc2ccccc2[Si](C)(C)c2ccc(Cl)cc2)C2CC2)c(C(F)F)c1	5.19

The record that follows has no logP shown yet.
Input Cn1cc(C(=O)N(Cc2ccccc2[Si](C)(C)c2cccs2)C2CC2)c(C(F)F)c1 , output reported logP.
4.59

###

# System: Uromyces appendiculatus
# assay-name: In vivo preventive test on Uromyces appendiculatus (bean rust)
# settings: 500 ppm of active ingredient; bean plants sprayed 24 hours before contamination; grading 11 days after contamination vs control plants
assay-readout: Efficacy (%)
Write the answer as a number in %, unit excluded.

smiles-str	Efficacy [%]
Cn1cc(C(=O)N(Cc2ccccc2[Si](C)(C)c2ccc(Cl)cc2)C2CC2)c(C(F)F)n1	86
Cn1cc(C(=O)N(Cc2ccccc2[Si](C)(C)c2cccs2)C2CC2)c(C(F)F)n1	96
Cn1nc(C(F)F)c(C(=O)N(Cc2ccccc2[Si](C)(C)c2ccc(Cl)cc2)C2CC2)c1F	100

Input Cn1nc(C(F)F)c(C(=S)N(Cc2ccccc2[Si](C)(C)c2ccc(Cl)cc2)C2CC2)c1F , output reported Efficacy.
97

###

# assay-name: log P by HPLC on reversed-phase column (C 18), EEC Directive 79/831 Annex V.A8
# Format: physicochemical
# settings: Table 2, compounds of formula (II); HPLC C 18, 40° C., 0.1% aqueous formic acid and acetonitrile, gradient 10% to 90% acetonitrile
Measured chromatographic logP accompanies every entry in the list below.
Enter the number alone.

These recorded examples may help you get a feel for the data.
smiles-str	chromatographic logP
C[Si](C)(c1ccc(Cl)cc1)c1ccccc1CNC1CC1	2.07
C[Si](C)(c1ccc(Oc2ccccc2)cc1)c1ccccc1CNC1CC1	2.42

Input C[Si](C)(c1cccs1)c1ccccc1CNC1CC1 , output reported chromatographic logP.
1.76

Input C[Si](C)(c1ccccc1CNC1CC1)c1cccc2ccccc12 , output reported chromatographic logP.
2.11

Input C[Si](C)(c1ccccc1)c1ccccc1CNC1CC1 , output reported chromatographic logP.
1.95

Input COc1ccc([Si](C)(C)c2ccccc2CNC2CC2)cn1 , output reported chromatographic logP.
1.86

Input C[Si](C)(c1ccc(-c2ccccc2)cc1)c1ccccc1CNC1CC1 , output reported chromatographic logP.
2.39

###

# Test system: Puccinia recondita
# assay-name: In vivo test on Puccinia recondita (brown rust)
# settings: 500 ppm of active ingredient; wheat plants sprayed 24 hours before contamination; grading 12 days after contamination vs control plants
assay-readout: Efficacy (%)
Write the answer as a number in %, unit excluded.

These recorded examples may help you get a feel for the data.
smiles-str	numeric-result
CCc1nn(C)c(F)c1C(=O)N(Cc1ccccc1[Si](C)(C)c1ccccc1)C1CC1	83
Cn1nc(C(F)F)c(C(=O)N(Cc2ccccc2[Si](C)(C)c2ccc(Oc3ccccc3)cc2)C2CC2)c1F	93
Cn1nc(C(F)F)c(C(=O)N(Cc2ccccc2[Si](C)(C)c2ccccc2)C2CC2)c1F	92
Cn1cc(C(=O)N(Cc2ccccc2[Si](C)(C)c2ccccc2)C2CC2)c(C(F)F)n1	83
Cn1cc(C(=O)N(Cc2ccccc2[Si](C)(C)c2cccs2)C2CC2)c(C(F)F)n1	75

Input Cn1nc(C(F)F)c(C(=O)N(Cc2ccccc2[Si](C)(C)c2ccccc2)C2CC2)c1Cl , output reported Efficacy.
83

###

# assay-name: log P by HPLC on reversed-phase column (C 18), EEC Directive 79/831 Annex V.A8
# Assay type: physicochemical
# settings: Table 1, compounds of formula (I); HPLC C 18, 40° C., 0.1% aqueous formic acid and acetonitrile, gradient 10% to 90% acetonitrile
assay-readout: logP
Enter the number alone.

These recorded examples may help you get a feel for the data.
molecule	logP
Cn1nc(C(F)F)c(C(=O)N(Cc2ccccc2[Si](C)(C)c2ccc(Oc3ccccc3)cc2)C2CC2)c1F [I.19]	5.68
Cn1nc(C(F)F)c(C(=O)N(Cc2ccccc2[Si](C)(C)c2ccc(-c3ccccc3)cc2)C2CC2)c1F [I.13]	5.71

Input Cc1nc(C(F)F)c(C(=O)N(Cc2ccccc2[Si](C)(C)c2ccc(-c3ccccc3)cc2)C2CC2)s1 [I.17] , output reported logP.
5.93

Input C[Si](C)(c1ccc(Oc2ccccc2)cc1)c1ccccc1CN(C(=O)c1ccsc1I)C1CC1 [I.22] , output reported logP.
6.36

Input Cn1nc(C(F)F)c(C(=O)N(Cc2ccccc2[Si](C)(C)c2cccs2)C2CC2)c1Cl [I.32] , output reported logP.
4.72

Input Cc1nc(C(F)F)c(C(=O)N(Cc2ccccc2[Si](C)(C)c2cccc3ccccc23)C2CC2)s1 [I.30] , output reported logP.
5.31

Input Cc1cc(C(=O)N(Cc2ccccc2[Si](C)(C)c2ccc(-c3ccccc3)cc2)C2CC2)c(C)o1 [I.15] , output reported logP.
6.39

Input Cn1cc(C(=O)N(Cc2ccccc2[Si](C)(C)c2ccc(Oc3ccccc3)cc2)C2CC2)c(C(F)F)n1 [I.20] , output reported logP.
5.31

Reference for the values: patent US20150080337A1
